The values you see were collected from patent US20130071921A1.

Listed here are binders together with their documented log10 koff.
- target of assay: T1, Recombinant human Dkk-1 (R&D Systems cat no. 1096-DK/CF), 10xHis tag at the C terminal (human, UniProt O94907 32-266)
- T1 construct: the actual N-terminus of the purified protein is marked in bold italic after residue 30, but the mark is an image lost in the text; also called rhuDkk-1; hDkk-1
- T1 sequence: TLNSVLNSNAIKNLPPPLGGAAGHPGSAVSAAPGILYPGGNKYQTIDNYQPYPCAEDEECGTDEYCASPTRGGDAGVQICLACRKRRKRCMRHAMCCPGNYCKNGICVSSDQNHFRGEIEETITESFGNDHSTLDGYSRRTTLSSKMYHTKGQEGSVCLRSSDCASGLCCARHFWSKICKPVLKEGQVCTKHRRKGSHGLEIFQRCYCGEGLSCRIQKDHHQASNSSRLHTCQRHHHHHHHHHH
- assay notes: SPR screening 37C (BIAcore/ProteOn), Fab lysate over biotinylated human Dkk-1
# log10 transformed; quantity=koff; unit=s⁻¹

As a guide, the following entries are already answered.
L2.4B10 (Fab, V domains shown, tested as Fab (E. coli lysate, screening mode); human kappa CL and IgG2 CH1 not included here) VH: EVQLVESGGGLVQPGGSLRLSCAASGFTFSSYAISWVRQAPGKGLEWVASVSGWYDTYYPDSVKGRFTISRDNAKNSLYLQMNSLRAEDTAVYYCATSLENYAFDYWGQGTTVTVSS VL: EIVLTQSPATLSLSPGERATLSCRASESVDDFGISFMNWYQQKPGQAPRLLIYAASKQGSGIPARFSGSGSGTDFTLTISSLEPEDFAVYYCQQSKEVPPTFGGGTKVEIK ... -2.46
L2.1F11 (Fab, V domains shown, tested as Fab (E. coli lysate, screening mode); human kappa CL and IgG2 CH1 not included here) VH: EVQLVESGGGLVQPGGSLRLSCAASGFTFSSYAISWVRQAPGKGLEWVASVSGWLDTYYPDSVKGRFTISRDNAKNSLYLQMNSLRAEDTAVYYCATSLQNYAFDYWGQGTTVTVSS VL: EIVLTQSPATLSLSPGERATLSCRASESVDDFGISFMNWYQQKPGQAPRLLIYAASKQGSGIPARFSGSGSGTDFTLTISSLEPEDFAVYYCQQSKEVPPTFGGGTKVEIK ... -2.67
SL3.3A10 (Fab, V domains shown, tested as Fab (E. coli lysate, screening mode); human kappa CL and IgG2 CH1 not included here) VH: EVQLVESGGGLVQPGGSLRLSCAASGFTFSSYAISWVRQAPGKGLEWVASVSGGGRTYYPDSVKGRFTISRDNAKNSLYLQMNSLRAEDTAVYYCATSLENYAFDYWGQGTTVTVSS VL: EIVLTQSPATLSLSPGERATLSCRASESVDDFGISFMNWYQQKPGQAPRLLIYAASKQGSGIPARFSGSGSGTDFTLTISSLEPEDFAVYYCQQSKELPPTFGGGTKVEIK ... -2.24
L2.P4.D1 (Fab, V domains shown, tested as Fab (E. coli lysate, screening mode); human kappa CL and IgG2 CH1 not included here) VH: EVQLVESGGGLVQPGGSLRLSCAASGFTFSSYAISWVRQAPGKGLEWVASVSGTGLGFQTYYPDSVKGRFTISRDNAKNSLYLQMNSLRAEDTAVYYCATSLDNYAFDYWGQGTTVTVSS VL: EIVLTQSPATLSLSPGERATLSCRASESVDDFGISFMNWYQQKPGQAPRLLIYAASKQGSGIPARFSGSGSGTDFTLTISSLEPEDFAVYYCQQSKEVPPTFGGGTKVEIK ... -2.54
L2.P4.H3 (Fab, V domains shown, tested as Fab (E. coli lysate, screening mode); human kappa CL and IgG2 CH1 not included here) VH: EVQLVESGGGLVQPGGSLRLSCAASGFTFSSYAISWVRQAPGKGLEWVASVSGWLDTYYPDSVKGRFTISRDNAKNSLYLQMNSLRAEDTAVYYCATSLENYAFDYWGQGTTVTVSS VL: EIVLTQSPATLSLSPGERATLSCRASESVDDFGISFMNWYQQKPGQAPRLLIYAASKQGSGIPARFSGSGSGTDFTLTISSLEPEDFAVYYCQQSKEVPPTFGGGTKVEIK ... -2.56
2H10.33L (Fab, V domains shown, tested as Fab (E. coli lysate, screening mode); human kappa CL and IgG2 CH1 not included here) VH: EVQLVESGGGLVQPGGSLRLSCAASGFTFSSYAISWVRQAPGKGLEWVASVSGWFDTYYPDSVKGRFTISRDNAKNSLYLQMNSLRAEDTAVYYCATSLQNYAFDYWGQGTTVTVSS VL: EIVLTQSPATLSLSPGERATLSCRASESVDDFGISFINWYQQKPGQAPRLLIYAGSKQGSGIPARFSGSGSGTDFTLTISSLEPEDFAVYYCQQLKEVPPTFGGGTKVEIK ... -3.83

[in] // query log10 koff value for entry L3.2H8 (Fab, V domains shown, tested as Fab (E. coli lysate, screening mode); human kappa CL and IgG2 CH1 not included here) VH: EVQLVESGGGLVQPGGSLRLSCAASGFTFSSYAISWVRQAPGKGLEWVASVSGWLGTYYPDSVKGRFTISRDNAKNSLYLQMNSLRAEDTAVYYCATSLQNYAFDYWGQGTTVTVSS VL: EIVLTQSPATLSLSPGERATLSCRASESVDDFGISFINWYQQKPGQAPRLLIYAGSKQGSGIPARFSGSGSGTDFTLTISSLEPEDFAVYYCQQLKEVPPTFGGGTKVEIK
[out] -3.26

[in] // query log10 koff value for entry SL3.4D1 (Fab, V domains shown, tested as Fab (E. coli lysate, screening mode); human kappa CL and IgG2 CH1 not included here) VH: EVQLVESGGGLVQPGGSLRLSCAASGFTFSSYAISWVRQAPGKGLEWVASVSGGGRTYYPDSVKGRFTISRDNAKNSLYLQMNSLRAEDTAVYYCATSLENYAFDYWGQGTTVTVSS VL: EIVLTQSPATLSLSPGERATLSCRASESVDDFGISFMNWYQQKPGQAPRLLIYAASKQGSGIPARFSGSGSGTDFTLTISSLEPEDFAVYYCQQSMEVPPTFGGGTKVEIK
[out] -2.12

[in] // query log10 koff value for entry L3.4E10 (Fab, V domains shown, tested as Fab (E. coli lysate, screening mode); human kappa CL and IgG2 CH1 not included here) VH: EVQLVESGGGLVQPGGSLRLSCAASGFTFSSYAISWVRQAPGKGLEWVASVSGWGHTYYPDSVKGRFTISRDNAKNSLYLQMNSLRAEDTAVYYCATSLQNYAFDYWGQGTTVTVSS VL: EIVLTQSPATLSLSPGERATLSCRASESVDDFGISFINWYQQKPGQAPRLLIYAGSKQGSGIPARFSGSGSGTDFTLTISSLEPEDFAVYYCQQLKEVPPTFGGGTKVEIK
[out] -3.27

[in] // query log10 koff value for entry SL3.1D2 (Fab, V domains shown, tested as Fab (E. coli lysate, screening mode); human kappa CL and IgG2 CH1 not included here) VH: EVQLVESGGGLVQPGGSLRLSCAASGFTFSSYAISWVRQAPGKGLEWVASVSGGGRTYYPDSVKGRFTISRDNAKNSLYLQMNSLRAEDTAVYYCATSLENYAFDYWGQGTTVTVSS VL: EIVLTQSPATLSLSPGERATLSCRASESVDDFGISFMNWYQQKPGQAPRLLIYAASKQGSGIPARFSGSGSGTDFTLTISSLEPEDFAVYYCQQSKEVPPLFGGGTKVEIK
[out] -2.31
